- ASSAY SUMMARY: refractive index (Na D-line) (dimensionless); xn = mol fraction of the nth substance listed
- TEST CONDITIONS: 293 K; 101.13 kPa; Liquid; Standard Abbe refractometry; x1 = 0.5
Here, each record is paired with measured refractive index data.
Could you keep your reply to the number by itself?

Field: example entries. Status: answers known.
- C[N+](C)(C)Cc1ccccc1.[Cl-] [trimethylbenzylammonium chloride] + CCC(O)CO: 1.4982
- C[N+](C)(C)Cc1ccccc1.[Cl-] [trimethylbenzylammonium chloride] + OCC(O)CO: 1.5653
- C[N+](C)(C)Cc1ccccc1.[Cl-] [trimethylbenzylammonium chloride] + OCCCCCCO: 1.5143

We now examine a further compound.
Query: Endpoint output: refractive index of C[N+](C)(C)Cc1ccccc1.[Cl-] [trimethylbenzylammonium chloride] + OCCO . Value?
Reply: 1.4806

Reference source: the NIST ThermoML archive (doi:10.1021/acs.jced.9b00134)
